Listed compounds paired with reported MIC99
test system: Mycobacterium tuberculosis; experiment: Antimycobacterial activity against isoniazid mono-resistant Mycobacterium tuberculosis isolate R5401 by two fold serial dilution based fluorescence assay; type: functional
reported endpoint: MIC99 (µM)

# compound, result modifier, recorded result
measured = [
    ("O=C(NNCCCNCCCN1c2ccccc2Sc2ccccc21)c1ccncc1", ">", 10),
    ("NNC(=O)c1ccncc1 [ISONIAZID]", "=", 2.5),
    ("O=C(NNCCCN1CCC(=C2c3ccccc3C=Cc3ccccc32)CC1)c1ccncc1", "=", 2.5),
    ("O=C(NNCCCN1c2ccccc2CCc2ccccc21)c1ccncc1", ">", 10),
    ("O=C(NNCCCN1CCC(=C2c3ccccc3Sc3ccccc32)CC1)c1ccncc1", "=", 2.5),
    ("O=C(NNCCCN1c2ccccc2Sc2ccccc21)c1ccncc1", ">", 10),
    ("O=C(NNCCCN1CCN(C(c2ccccc2)c2ccccc2)CC1)c1ccncc1", "=", 2.5),
    ("O=C(NNCCCN1CCN(C2c3ccccc3CCc3ccccc32)CC1)c1ccncc1", ">", 10),
    ("O=C(NNCCCN1CCC(=C2c3ccccc3Sc3ccc(Cl)cc32)CC1)c1ccncc1", "=", 1.25),
    ("O=C(NNCCCN1CCC(N2c3ccccc3Sc3ccccc32)CC1)c1ccncc1", "=", 2.5),
    ("O=C(NNCCCNCCCN1c2ccccc2Sc2ccc(Cl)cc21)c1ccncc1", ">", 10),
    ("O=C(NNCCCN1CCC(N2c3ccccc3Sc3ccc(Cl)cc32)CC1)c1ccncc1", "=", 1),
    ("O=C(NNCCCN1c2ccccc2Sc2ccc(Cl)cc21)c1ccncc1", ">", 10),
    ("O=C(NNCCCN1CCN(C(c2ccccc2)(c2ccccc2)c2ccccc2)CC1)c1ccncc1", "=", 2.5),
    ("O=C(NNCCCN1CCN(CC(O)(c2ccccc2)c2ccccc2)CC1)c1ccncc1", "=", 2.5),
]

The reported numbers originate from ChEMBL document CHEMBL4184228.
